measurementDescription: small-molecule microarray binders of probe aXIP, primary screen, biochemical, NeuroSMM set, 635/667 nm fluorescence (AID 1119);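 further: probe is the protein aXip251-270 applied at 1 µg/mL to compound-printed slides; binding of probe to printed compounds measured as 667 nm fluorescence plus signal to noise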
studyConditions: called active from +8 up or from −8 down
Activity calls are given as the source filed them.
Allowed answers: active, inactive

See these solved cases before continuing.
- CC(CO)N1C(=O)[C@@H]2[C@H]3C(=O)OCC=C[C@H]3OC23C=CCN(c2ccc(Cl)cc2)C(=O)[C@@H]13 (stereo not given in full): inactive
- O=C(NCC(O)CO)[C@@]1(CCS(=O)(=O)c2ccccc2)COC(c2ccc(OCCCO)cc2)=N1 (stereo not given in full): inactive
- CCCCCN1CC=CC23O[C@@H]4C=CCOC(=O)[C@@H]4[C@H]2C(=O)N(CCO)[C@@H]3C1=O (stereo not given in full): inactive
- COC(=O)C(CC#Cc1ccc2c(c1)[C@]1(C(=O)N2)[C@H](C(=O)Nc2nc3ccccc3s2)[C@H]2C(=O)O[C@H](c3ccccc3)[C@H](c3ccccc3)N2[C@@H]1c1ccc(OCCO)cc1)C(=O)OC: inactive
- COCC(=C=CC[C@H](O)c1cccc(OCCO)c1)C[C@H](O)COCc1ccccc1: inactive

Record lookup: outcome of this test for COC(=O)C1=CC(CCCO)=CC(C)N(Cc2cccc(OC(F)(F)F)c2)C=C1C(=O)OC (stereo not given) ? inactive

Sourced from PubChem BioAssay
